System: Streptococcus salivarius
Assay name: growth AUC relative to DMSO control (median of replicates) (fraction); higher = more growth (less inhibition), active = hit call of the paper
Conditions used: 20 µM; 24 h
Tick met if growth AUC is 1 or greater. Tick not met if growth AUC is less than 1.

COc1c(Cl)ccc(Cl)c1C(=O)O met

Now consider the entry below.
Problem: Can "CC(C)COC(=O)COc1cc(Cl)c(Cl)cc1Cl" be said to have growth AUC at or above 1?
Solution: not met

* * *

// growth AUC lookup, one value per entry
System: Bacteroides uniformis
Assay name: growth AUC relative to DMSO control (median of replicates) (fraction); higher = more growth (less inhibition), active = hit call of the paper
Conditions used: 20 µM; 24 h
# respond with the number and nothing more

Here is how some molecules turned out for growth AUC.
Molecule	Assay value
CS(=O)(=O)c1ccc(C(=O)O)c(N)c1	1.03
COc1cc(OC)nc(NC(=O)NS(=O)(=O)N(C)S(C)(=O)=O)n1	0.98
Clc1ccc(CSc2ccc(Cl)cc2)cc1	0.998
CCOC(=O)c1ccc(O)cc1	1
ClC=C(c1ccc(Cl)cc1)c1ccc(Cl)cc1	0.996
CCCOC(=O)NCCCN(C)C	1
O=C(NCc1ncc(C(F)(F)F)cc1Cl)c1c(Cl)cccc1Cl	1.02
NC(=O)C1CO1 (configuration not stated)	0.912

Problem: Dear colleague, please send me the reported growth AUC for COC(=O)C(C)Oc1ccc(Cl)cc1Cl (configuration not stated) when you can.
Solution: 1.05

Problem: Dear colleague, please send me the reported growth AUC for "O.O=C(Nc1ccc(Cl)c(Cl)c1)Nc1cc(Cl)ccc1Oc1ccc(Cl)cc1S(=O)(=O)[O-].[Na+]" when you can.
Solution: 0.00911

Problem: Dear colleague, please send me the reported growth AUC for CC(C)CCCCCOC(=O)C(C)Oc1ccc(Cl)cc1Cl (configuration not stated) when you can.
Solution: 0.992

Problem: Dear colleague, please send me the reported growth AUC for "CCN(CC)C(=O)c1cccc(C)c1" when you can.
Solution: 0.998

* * *

Test system: Bacteroides stercoris
Assay name: growth AUC relative to DMSO control (median of replicates) (fraction); higher = more growth (less inhibition), active = hit call of the paper;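 active = AUC reduced over 20% with Padj below 0.05 in at least 2 of 3 replicates; inactive = otherwise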
Conditions used: 20 µM; 24 h
Select the matching outcome among TRUE for active, FALSE for inactive

Study these solved cases before continuing.
Molecule	Class
CCCCC(CC)CN1C(=O)C2C(C1=O)[C@H]1C=C[C@@H]2C1 (mixture of isomers)	FALSE
CCc1cccc(C)c1NC(C)C(=O)O (racemic)	FALSE
CC(C)(NC(=O)NCc1ccccc1Cl)c1ccccc1	FALSE
O=C(O)C1(C(=O)Nc2ccc(Cl)cc2Cl)CC1	FALSE
Cl.NCCO/C=C/[C@H](N)C(=O)O	FALSE
CCOC(=O)c1nc(C(Cl)(Cl)Cl)n(-c2ccc(Cl)cc2Cl)n1	FALSE
Cc1[nH]oc(=O)c1N=Nc1ccccc1Cl	FALSE
CC(C)COC(=O)COc1cc(Cl)c(Cl)cc1Cl	FALSE

Problem: Tell me the assay call for "CC(C)CCCCCCc1ccc(O)cc1" please.
Solution: FALSE

Problem: Tell me the assay call for CC(C)C1C2CCC1c1c(NC(=O)c3cn(C)nc3C(F)F)cccc12 (stereo unspecified) please.
Solution: FALSE

* * *

System: Fusobacterium nucleatum subsp. animalis
Assay name: growth AUC relative to DMSO control (median of replicates) (fraction); higher = more growth (less inhibition), active = hit call of the paper
Conditions used: 20 µM; 24 h
// growth AUC lookup, one value per entry
# respond with the number and nothing more

Problem: Dear colleague, please send me the reported growth AUC for "CCOCOc1ccc(C(=O)Nc2cccc(Cl)c2Cl)cc1" when you can.
Solution: 0.901

Problem: Dear colleague, please send me the reported growth AUC for "COc1cc(OC)nc(NC(=O)NS(=O)(=O)N(C)S(C)(=O)=O)n1" when you can.
Solution: 1.01

* * *

System: Parabacteroides merdae
Assay name: growth AUC relative to DMSO control (median of replicates) (fraction); higher = more growth (less inhibition), active = hit call of the paper
Conditions used: 20 µM; 24 h
// growth AUC lookup, one value per entry
# respond with the number and nothing more

Here is how some molecules turned out for growth AUC.
Molecule	Assay value
CCc1cccc(C)c1NC(=O)C(=O)O	1.03
O=C(O)COc1ccc(Cl)cc1CO	0.978
O=C1NCC[n+]2ccccc21.[Br-]	0.972
CC(Oc1ccc(Cl)cc1Cl)C(=O)NC(C)(C#N)C(C)C (stereo unspecified)	0.981
COC(=O)c1ccc(CNS(C)(=O)=O)cc1S(=O)(=O)NC(=O)Nc1nc(OC)cc(OC)n1	1.02

Let's switch to this molecule now.
Problem: Dear colleague, please send me the reported growth AUC for CC(C)C1C2CCC1c1c(NC(=O)c3cn(C)nc3C(F)F)cccc12 (stereo unspecified) when you can.
Solution: 0.862

* * *

Tested on: Bacteroides clarus
Assay name: growth AUC relative to DMSO control (median of replicates) (fraction); higher = more growth (less inhibition), active = hit call of the paper
Conditions used: 20 µM; 24 h
Measurement type: growth AUC
# respond with the number and nothing more

Problem: Dear colleague, please send me the reported growth AUC for "CC(C)NS(=O)(=O)NC(=O)c1cc(NC(N)=O)c(F)cc1Cl" when you can.
Solution: 0.988

Problem: Dear colleague, please send me the reported growth AUC for "Cc1cc(C2CC2)nc(Nc2ccc(O)cc2)n1" when you can.
Solution: 0.967

Problem: Dear colleague, please send me the reported growth AUC for "COCCOc1ccccc1S(=O)(=O)NC(=O)Nc1nc(OC)nc(OC)n1" when you can.
Solution: 0.97

Problem: Dear colleague, please send me the reported growth AUC for C/C=C/C(=O)Oc1c(C(C)CCCCCC)cc([N+](=O)[O-])cc1[N+](=O)[O-] (mixture of isomers) when you can.
Solution: 0.0314

Problem: Dear colleague, please send me the reported growth AUC for COC(=O)C(C)Oc1ccc(Oc2ncc(C(F)(F)F)cc2Cl)cc1 (stereo not given) when you can.
Solution: 0.977

* * *

System: Streptococcus salivarius
Assay name: growth AUC relative to DMSO control (median of replicates) (fraction); higher = more growth (less inhibition), active = hit call of the paper
Conditions used: 20 µM; 24 h
// growth AUC lookup, one value per entry
# respond with the number and nothing more

Here is how some compounds turned out for growth AUC.
Compound	growth AUC
CCCCOCCOCCOCc1cc2c(cc1CCC)OCO2	1.03
CC1(C)C(C(=O)OC(C#N)c2cccc(Oc3ccccc3)c2)C1C(Br)C(Br)(Br)Br (stereo not given)	0.972
C=C1C[C@]23C[C@@]1(O)CC[C@H]2[C@@]12C=C[C@H](O)[C@@](C)(C(=O)O1)[C@H]2[C@@H]3C(=O)O	0.904
Cc1cccc(C)c1N(C(=O)CCl)C1CCOC1=O (stereo not given)	0.86

Let's switch to this compound now.
Problem: Dear colleague, please send me the reported growth AUC for "CCOC(=O)c1cnn(C)c1S(=O)(=O)NC(=O)Nc1nc(OC)cc(OC)n1" when you can.
Solution: 1.01

* * *

Test system: Escherichia coli IAI1
Assay name: growth AUC relative to DMSO control (median of replicates) (fraction); higher = more growth (less inhibition), active = hit call of the paper
Conditions used: 20 µM; 24 h
Measurement type: growth AUC
# respond with the number and nothing more

Here is how some compounds turned out for growth AUC.
Compound	Assay value
C=CCOC(Cn1ccnc1)c1ccc(Cl)cc1Cl (stereo unspecified)	0.967
Cc1ccc2c(c1)[C@H](Nc1nc(N)nc(C(C)F)n1)[C@@H](C)C2 (stereo partly specified)	1.02
C=CCO/N=C(\CCC)C1=C([O-])CC(C)(C)C(C(=O)OC)C1=O.[Na+] (stereo unspecified)	1.02

Let's switch to this compound now.
Problem: Given COC(=O)C(C)Oc1ccc(Cl)cc1C (stereo unspecified) , report its growth AUC on Escherichia coli IAI1.
Solution: 1

* * *

Test system: Escherichia coli IAI1
Assay name: growth AUC relative to DMSO control (median of replicates) (fraction); higher = more growth (less inhibition), active = hit call of the paper
Conditions used: 20 µM; 24 h
// growth AUC lookup, one value per entry
# respond with the number and nothing more

Here is how some compounds turned out for growth AUC.
Compound	growth AUC
COc1c(Cl)ccc(Cl)c1C(=O)O	0.986
CCOC(=O)CSc1nc(C(C)(C)C)nn1C(=O)N(C)C	0.947
[S]	0.963
CN(C)C(=O)Nc1ccc(Oc2ccc(Cl)cc2)cc1	0.938
CC(C)N(C(=O)CS(=O)(=O)[O-])c1ccc(F)cc1.[Na+]	0.984

Problem: Dear colleague, please send me the reported growth AUC for "CC(C)c1cc(Oc2ccccc2)cc(C(C)C)c1NC(=S)NC(C)(C)C" when you can.
Solution: 1.01

Problem: Dear colleague, please send me the reported growth AUC for "C#CCN(C)c1c(C#N)cnn1-c1nn2c(c1Cl)CCCC2" when you can.
Solution: 1.02

Problem: Dear colleague, please send me the reported growth AUC for COC1CCC2(CC1)NC(=O)C(c1cc(C)ccc1C)=C2OC1OC(CO)C(O)C(O)C1O (centres undefined) when you can.
Solution: 1.03

Problem: Dear colleague, please send me the reported growth AUC for O=C=NC1CCC(CC2CCC(N=C=O)CC2)CC1 (centres undefined) when you can.
Solution: 1.03

Problem: Dear colleague, please send me the reported growth AUC for "CCc1nc2ncnn2c(N)c1CCCCCC(=O)O.Cl" when you can.
Solution: 1.04
